System: Mus musculus
Experiment: Analgesic activity in Swiss albino mouse assessed as protection against acetic acid-induced writhing at 20 mg/kg, po after 30 mins
Assay type: functional

| compound | Activity, % |
| --- | --- |
| O=c1c2cc3ccccc3nc2nc2sc3nc4ccccc4nc3n12 | 40.4 |
| Nc1cc(=O)n2c(n1)sc1nc3ccccc3nc12 | 60.4 |
| O=C([O-])Cc1ccccc1Nc1c(Cl)cccc1Cl.[Na+] [DICLOFENAC SODIUM] | 46 |
| Cc1cc(C)c2c(N)c3c(=O)n4c(nc3nc2n1)sc1nc2ccccc2nc14 | 72.2 |
| O=c1c2c(-c3ccc(Cl)cc3)c3c(nc2nc2sc4nc5ccccc5nc4n12)/C(=C\c1ccc(Cl)cc1)CCC3 | 45 |
| Nc1cc(=O)[nH]c(Sc2nc3ccccc3nc2Cl)n1 | 68 |
| O=c1cc(/N=C/c2ccncc2)nc2sc3nc4ccccc4nc3n12 | 60.2 |
| O=c1c2cc3c(nc2nc2sc4nc5ccccc5nc4n12)CCCC3 | 42.2 |
| O=c1c2ccc(Cl)cc2[nH]c2nc3sc4nc5ccccc5nc4n3c(=O)c12 | 40.5 |
| O=c1c2ccccc2[nH]c2nc3sc4nc5ccccc5nc4n3c(=O)c12 | 42.5 |

---

Tested on: Rattus norvegicus
Experiment: Antiinflammatory activity in Sprague-Dawley rat assessed as protection against carrageenan-induced paw edema at 20 mg/kg, po administered 1 hr before carrageenan challenge measured after 3 hrs
Assay type: functional

| compound | unit.symbol | Activity |
| --- | --- | --- |
| O=c1cc(/N=C/c2ccncc2)nc2sc3nc4ccccc4nc3n12 | % | 33.4 |
| O=c1c2c(-c3ccc(Cl)cc3)c3c(nc2nc2sc4nc5ccccc5nc4n12)/C(=C\c1ccc(Cl)cc1)CCC3 | % | 38.2 |
| Cc1cc(C)c2c(N)c3c(=O)n4c(nc3nc2n1)sc1nc2ccccc2nc14 | % | 45.5 |
| O=c1c2c(-c3ccccc3)c3c(nc2nc2sc4nc5ccccc5nc4n12)/C(=C\c1ccccc1)CCC3 | % | 31.9 |
| Nc1cc(=O)n2c(n1)sc1nc3ccccc3nc12 | % | 41.2 |
| O=C([O-])Cc1ccccc1Nc1c(Cl)cccc1Cl.[Na+] [DICLOFENAC SODIUM] | % | 42 |
| Nc1cc(=O)[nH]c(Sc2nc3ccccc3nc2Cl)n1 | % | 41.3 |
| O=c1c2cc3c(nc2nc2sc4nc5ccccc5nc4n12)CCCC3 | % | 24.3 |
| COc1ccc(/C=C2/CCCc3c2nc2nc4sc5nc6ccccc6nc5n4c(=O)c2c3-c2ccc(OC)cc2)cc1 | % | 40.1 |
| Cc1nn(-c2ccccc2)c2nc3nc4sc5nc6ccccc6nc5n4c(=O)c3cc12 | % | 33.8 |
| O=c1c2ccccc2[nH]c2nc3sc4nc5ccccc5nc4n3c(=O)c12 | % | 30.1 |
| O=c1c2cc3ccccc3nc2nc2sc3nc4ccccc4nc3n12 | % | 37.6 |
| O=c1c2ccc(Cl)cc2[nH]c2nc3sc4nc5ccccc5nc4n3c(=O)c12 | % | 31.5 |

---

Activity values for the molecules below.
System: Mus musculus
Assay: Analgesic activity in Swiss albino mouse assessed as protection against acetic acid-induced writhing at 20 mg/kg, po after 30 mins
Assay type: functional

| compound.structure | Activity [%] |
| --- | --- |
| O=c1c2c(-c3ccccc3)c3c(nc2nc2sc4nc5ccccc5nc4n12)/C(=C\c1ccccc1)CCC3 | 42.4 |
| Cc1nn(-c2ccccc2)c2nc3nc4sc5nc6ccccc6nc5n4c(=O)c3cc12 | 45.7 |
| COc1ccc(/C=C2/CCCc3c2nc2nc4sc5nc6ccccc6nc5n4c(=O)c2c3-c2ccc(OC)cc2)cc1 | 51.4 |
